Reported values of pKd for individual entries
target: kinase enzymes (Homo sapiens); construct: purchased DiscoveRx Corporation, San Diego (contract service, KINOMEscan); test: Enzyme binding assay (KINOMEscan, DiscoveRx), further kinases of Table A; conditions: MTOR_h
pKd: −log10 of the molar value.
quantity kind: pKd

compound="CC(Oc1cccc(F)c1F)c1cc(C(=O)N(C)C)cc2ncc(N3CCOCC3)nc12 (single isomer, unassigned) [Compound 74]" quantity_kind=pKd value=4.63
compound="Cc1ccc(NC(C)c2cc(C(=O)NCCN(C)C)cc3ncc(N4CCOCC4)nc23)cc1F (single isomer, unassigned) [Compound 407a]" quantity_kind=pKd value=4.98
compound="CC(Nc1ccc(F)c(F)c1)c1cc(C(=O)N(C)CCN(C)C)cc2ncc(N3CCOCC3)nc12 (single isomer, unassigned) [Compound 349a]" quantity_kind=pKd value="< 4.52"
compound="CC(Nc1ccc(F)c(F)c1)c1cc(C(=O)N2CCC[C@H](O)C2)cc2ncc(N3CCOCC3)nc12 (single isomer, unassigned) [Compound 302a]" quantity_kind=pKd value="< 4.52"
compound="CN[C@@H]1CCN(C(=O)c2cc(C(C)Nc3ccc(F)c(F)c3)c3nc(N4CCOCC4)cnc3c2)C1 (single isomer, unassigned) [Compound 371b]" quantity_kind=pKd value="< 4.52"
compound="CC(Nc1cccc(F)c1)c1cc(C(=O)N2CC[C@@H](O)C2)cc2ncc(N3CCOCC3)nc12 (single isomer, unassigned) [Compound 321b]" quantity_kind=pKd value="< 4.52"
compound="CC(Nc1cc(F)cc(F)c1)c1cc(C(=O)N2CCNC(C(F)(F)F)C2)cc2ncc(N3CCOCC3)nc12 (single isomer, unassigned) [Compound 237a]" quantity_kind=pKd value="< 4.52"
compound="CC(Nc1cc(F)cc(F)c1)c1cc(CN2CCOCC23COC3)cc2ncc(N3CCOCC3)nc12 (single isomer, unassigned) [Compound 192]" quantity_kind=pKd value="< 4.52"
compound="CC(Nc1cc(F)c(F)c(F)c1)c1cc(C(=O)N(C)C2CCNC2)cc2ncc(N3CCOCC3)nc12 (single isomer, unassigned) [Compound 296b]" quantity_kind=pKd value="< 4.52"
compound="CNCCOCCN(C)C(=O)c1cc(C(C)Nc2ccc(F)c(F)c2)c2nc(N3CCOCC3)cnc2c1 (single isomer, unassigned) [Compound 345a]" quantity_kind=pKd value="< 4.52"
compound=CC(C)NCCNC(=O)c1cc(NCc2cc(F)cc(F)c2)c2nc(N3CCOCC3)cnc2c1 quantity_kind=pKd value=4.78
compound=CN(C)C(=O)c1cc(N2CCC[C@@H]2c2cc(F)cc(F)c2)c2nc(C3=CCOCC3)cnc2c1 quantity_kind=pKd value="< 4.52"

* * *

biological target: kinase enzymes (Homo sapiens, UniProt P42336)
Sequence (P42336 whole entry): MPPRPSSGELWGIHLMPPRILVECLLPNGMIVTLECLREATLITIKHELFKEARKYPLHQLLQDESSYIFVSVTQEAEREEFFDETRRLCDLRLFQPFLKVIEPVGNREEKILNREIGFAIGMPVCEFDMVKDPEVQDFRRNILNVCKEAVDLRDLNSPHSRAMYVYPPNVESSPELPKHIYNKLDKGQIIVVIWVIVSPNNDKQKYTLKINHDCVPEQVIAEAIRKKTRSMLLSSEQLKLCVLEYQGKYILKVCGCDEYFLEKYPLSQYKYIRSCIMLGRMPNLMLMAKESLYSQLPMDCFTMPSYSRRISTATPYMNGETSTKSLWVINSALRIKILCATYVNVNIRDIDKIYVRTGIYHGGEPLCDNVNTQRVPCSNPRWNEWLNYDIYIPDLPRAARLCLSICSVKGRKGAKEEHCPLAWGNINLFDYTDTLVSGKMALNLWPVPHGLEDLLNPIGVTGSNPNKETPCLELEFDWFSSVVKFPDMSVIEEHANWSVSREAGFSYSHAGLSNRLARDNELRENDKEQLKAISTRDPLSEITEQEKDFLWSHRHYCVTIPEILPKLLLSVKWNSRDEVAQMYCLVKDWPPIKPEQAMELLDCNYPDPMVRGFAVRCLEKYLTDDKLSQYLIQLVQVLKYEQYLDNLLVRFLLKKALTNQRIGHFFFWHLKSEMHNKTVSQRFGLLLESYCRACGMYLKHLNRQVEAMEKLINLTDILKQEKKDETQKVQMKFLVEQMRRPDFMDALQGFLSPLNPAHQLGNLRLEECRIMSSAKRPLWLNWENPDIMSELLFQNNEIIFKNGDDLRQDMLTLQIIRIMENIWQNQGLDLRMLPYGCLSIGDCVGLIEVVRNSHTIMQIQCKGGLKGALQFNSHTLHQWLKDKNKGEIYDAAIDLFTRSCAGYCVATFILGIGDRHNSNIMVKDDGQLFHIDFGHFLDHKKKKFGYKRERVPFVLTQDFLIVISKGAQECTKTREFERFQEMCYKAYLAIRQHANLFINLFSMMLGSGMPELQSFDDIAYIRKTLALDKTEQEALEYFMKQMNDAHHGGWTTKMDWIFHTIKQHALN
Binned Kd; ranges: low interval (below 2 µM), middle interval (2 µM to below 9 µM), high interval (9 µM or more)

molecule="CC(Oc1cc(F)cc(F)c1)c1cc(C(=O)N(C)C)cc2ncc(N3CCOCC3)nc12 (stereo not shown) [Compound 53]" cat="middle interval"
molecule="CC(Nc1ccc(F)c(F)c1)c1cc(C(=O)N[C@H]2CCNC2)cc2ncc(N3CCOCC3)nc12 (single isomer, unassigned) [Compound 374b]" cat="high interval"
molecule="CC(Oc1cc(F)c(F)c(F)c1)c1cc(C(=O)N(C)C2CCNC2)cc2ncc(N3CCOCC3)nc12 (single isomer, unassigned) [Compound 404b]" cat="middle interval"
molecule="O=C(c1cc(C2CCCN2c2cc(F)cc(F)c2)c2nc(N3CCOCC3)cnc2c1)N1CC(CO)C1 (stereo not shown)" cat="low interval"
molecule="CC(Oc1cc(F)cc(F)c1)c1cc(C(=O)N(C)C)cc2ncc(C3=CCOCC3)nc12 (single isomer, unassigned) [Compound 403b]" cat="high interval"
molecule="CC(Oc1ccc(F)c(F)c1)c1cc(C(=O)NCCN(C)C)cc2ncc(N3CCOCC3)nc12 (single isomer, unassigned) [Compound 299a]" cat="middle interval"
molecule="CC(Nc1cc(F)cc(F)c1)c1cc(C(=O)O)cc2ncc(N3CCOCC3)nc12 (stereo not shown) [Compound 236]" cat="low interval"
molecule=C[C@H](Nc1cc(C(=O)N(C)C)cc2ncc(N3CCOCC3)nc12)c1ccc(F)cc1 cat="low interval"
molecule="CC(Oc1cc(F)cc(F)c1)c1cc(C(=O)N(C)CCO)cc2ncc(N3CCOCC3)nc12 (single isomer, unassigned) [Compound 60]" cat="high interval"
molecule="CC(Nc1cccc(F)c1)c1cc(C(=O)N2CCC[C@H](O)C2)cc2ncc(N3CCOCC3)nc12 (single isomer, unassigned) [Compound 320b]" cat="high interval"
molecule="Cc1c(F)cccc1CN(C)c1cc(C(=O)N2CCNC(C(F)(F)F)C2)cc2ncc(N3CCOCC3)nc12 (single isomer, unassigned) [Compound 367b]" cat="middle interval"
molecule="CC(Nc1cc(F)cc(F)c1)c1cc(C=NO)cc2ncc(N3CCOCC3)nc12 (single isomer, unassigned)" cat="middle interval"
